Recorded inhibition, one value per entry.
- Study target: Protein deacetylase HDAC6 (Homo sapiens) (UniProt Q9UBN7)
- Sequence (Q9UBN7 whole entry): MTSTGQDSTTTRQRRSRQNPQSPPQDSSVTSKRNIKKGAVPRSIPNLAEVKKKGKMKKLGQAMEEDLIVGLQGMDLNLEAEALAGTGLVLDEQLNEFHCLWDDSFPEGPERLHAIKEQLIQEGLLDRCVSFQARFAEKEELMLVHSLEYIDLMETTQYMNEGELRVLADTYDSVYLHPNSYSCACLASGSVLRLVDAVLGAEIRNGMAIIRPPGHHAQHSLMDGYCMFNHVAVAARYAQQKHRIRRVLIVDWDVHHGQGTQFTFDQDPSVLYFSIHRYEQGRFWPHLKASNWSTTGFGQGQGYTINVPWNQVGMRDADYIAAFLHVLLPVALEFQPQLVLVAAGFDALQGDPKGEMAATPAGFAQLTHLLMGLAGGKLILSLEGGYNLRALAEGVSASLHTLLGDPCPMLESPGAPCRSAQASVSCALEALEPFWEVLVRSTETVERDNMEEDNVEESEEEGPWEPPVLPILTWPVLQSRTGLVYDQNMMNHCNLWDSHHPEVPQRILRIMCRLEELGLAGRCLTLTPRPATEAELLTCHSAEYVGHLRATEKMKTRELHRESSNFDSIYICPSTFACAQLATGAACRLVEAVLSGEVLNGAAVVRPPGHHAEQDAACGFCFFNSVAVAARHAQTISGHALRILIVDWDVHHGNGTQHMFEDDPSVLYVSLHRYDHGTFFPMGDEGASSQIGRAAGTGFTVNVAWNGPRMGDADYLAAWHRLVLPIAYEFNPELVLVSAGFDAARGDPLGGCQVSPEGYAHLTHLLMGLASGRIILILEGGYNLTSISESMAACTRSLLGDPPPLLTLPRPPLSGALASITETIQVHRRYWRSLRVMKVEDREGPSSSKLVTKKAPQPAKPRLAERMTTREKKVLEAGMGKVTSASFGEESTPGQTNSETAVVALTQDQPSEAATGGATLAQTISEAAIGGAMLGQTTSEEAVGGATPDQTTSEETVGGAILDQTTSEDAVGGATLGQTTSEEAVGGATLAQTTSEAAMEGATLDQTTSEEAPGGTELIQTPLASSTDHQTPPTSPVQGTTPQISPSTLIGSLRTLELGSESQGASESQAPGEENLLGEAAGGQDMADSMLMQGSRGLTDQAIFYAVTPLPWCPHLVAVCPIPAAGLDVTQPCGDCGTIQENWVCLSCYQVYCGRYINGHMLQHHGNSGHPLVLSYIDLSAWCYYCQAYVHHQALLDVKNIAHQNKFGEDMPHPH
- Applied conditions: at 10 µM
The campaign covered roughly 5,600 compounds. About 390 (7%) showed an effect of 50% or more. The sample as a whole holds a higher share of strong results than the screen did. Residues, ends and D or L forms follow the SMILES beside them.
Use % as the unit, but write only the number.

Example results:
>  <Molecule>
C#CCC(Cc1cnc2nc(N)nc(N)c2n1)c1ccc(C(=O)N[C@@H](CCC(=O)O)C(=O)O)cc1 (stereo not given in full)

>  <Reading unit>
%

>  <inhibition>
30

$$$$
>  <Molecule>
COc1ncc(-c2ccc3c(Nc4cc(Oc5cc(F)cc(F)c5)cc(C(=O)O)c4)c(S(=O)(=O)NC4CC4)cnc3c2)c(OC)n1

>  <Reading unit>
%

>  <inhibition>
12.8

$$$$
>  <Molecule>
C[C@H](N)C(=O)N[C@@H](CCC(N)=O)C(=O)O (H-Ala-Gln-OH)

>  <Reading unit>
%

>  <inhibition>
-3.39

$$$$
>  <Molecule>
CCCC(=O)c1cc(F)ccc1OCC(O)CNC(C)(C)C (stereo not given)

>  <Reading unit>
%

>  <inhibition>
-1.16

$$$$

Then this molecule:
inhibition lookup needed for `CCOCCOc1ccccc1C(N)=O` , thanks.
5.9

* * *

- Study target: Protein deacetylase HDAC6 (Homo sapiens)
- Applied conditions: at 10 µM
In all, about 5,600 compounds went through this assay and about 390 (7%) showed an effect of 50% or more. Shown is part of a subset that was picked to be rich in strong results.
Quantity measured: inhibition (%)
API: value field is a number in %; no unit string.

Example entries and their recorded answers appear below.
>  <Compound>
O=C1CC(=O)c2c(Cl)c(Cl)c(Cl)c(Cl)c21

>  <inhibition [%]>
-2.09

$$$$
>  <Compound>
O=C(c1ccc(OCCCc2c[nH]cn2)cc1)C1CC1

>  <inhibition [%]>
70.7

$$$$
>  <Compound>
CC(=O)Nc1ccc(C(=O)NC(C)(C)C)cc1

>  <inhibition [%]>
9.15

$$$$
>  <Compound>
COc1cc(OC)c(/C=C2/C(=O)Nc3ccccc32)c(OC)c1

>  <inhibition [%]>
-6

$$$$
>  <Compound>
O=C(O)c1ccc(-c2ccc3cc(C45CC6CC(CC(C6)C4)C5)c(O)cc3c2)cc1

>  <inhibition [%]>
-6.28

$$$$
>  <Compound>
CC1(C)[C@H]2CC[C@@]1(C)[C@H](O)[C@@H]2O (racemic)

>  <inhibition [%]>
31.2

$$$$
>  <Compound>
NC(=S)N/N=C/c1coc2ccccc2c1=O

>  <inhibition [%]>
54.7

$$$$
>  <Compound>
CCOc1ccc(/C=C2\NCCc3cc(OCC)c(OCC)cc32)cc1OCC

>  <inhibition [%]>
7.94

$$$$

Request the reported inhibition associated with CN/C(=N\S(=O)(=O)c1ccc(Cl)cc1)N1CC(c2ccccc2)C(c2ccc(Cl)cc2)=N1 (racemic)
9.02

Another compound: `CN(C)c1cccc(Oc2cnc(Nc3cccc(O)c3)nc2)c1`
30.8
